Overview of recorded melting point for various compounds
MEASURED_ENDPOINT: melting point

COMPOUND | OBS_VALUE
C=C(C)C1CC[C@]2(COC(=O)c3cn(C(C(=O)O)C(C)C)nn3)CC[C@]3(C)C(CCC4[C@@]5(C)CC[C@H](O)C(C)(C)C5CC[C@]43C)C12 (stereo partly drawn) | 293 to 297 °C
C=C(C)C1CC[C@]2(COC(=O)c3cn(Cc4ccccc4)nn3)CC[C@]3(C)C(CCC4[C@@]5(C)CC[C@H](OC(=O)c6cn(Cc7ccccc7)nn6)C(C)(C)C5CC[C@]43C)C12 (stereo partly drawn) | 117 to 120 °C
C=C(C)C1CC[C@]2(COC(=O)c3cn(Cc4ccc(F)cc4)nn3)CC[C@]3(C)C(CCC4[C@@]5(C)CC[C@H](O)C(C)(C)C5CC[C@]43C)C12 (stereo partly drawn) | 144 to 147 °C

* * *

Overview of recorded melting point for various compounds

COMPOUND | melting point
C=C(C)C1CC[C@]2(COC(=O)c3cn(Cc4ccc(F)cc4)nn3)CC[C@]3(C)C(CCC4[C@@]5(C)CC[C@H](OC(=O)c6cn(Cc7ccc(F)cc7)nn6)C(C)(C)C5CC[C@]43C)C12 (some centres unmarked) [Compound 6b] | 155 to 158 °C
C=C(C)C1CCC2(COC(=O)c3cn(C4CC(n5cc(C)c(=O)[nH]c5=O)OC4CO)nn3)CCC3(C)C(CCC4C5(C)CCC(OC(=O)c6cn(C7CC(n8cc(C)c(=O)[nH]c8=O)OC7CO)nn6)C(C)(C)C5CCC43C)C12 (centres unmarked) [Compound 6e] | 224 to 227 °C

* * *

METHOD_NOTES: Cytotoxicity assay (MTT), determination of CC50
EXPERIMENTAL_CONDITIONS: human

MOLECULE | UNIT | CC50 at 48 h
C=C(C)[C@@H]1CC[C@]2(CO)CC[C@]3(C)[C@H](CC[C@@H]4[C@@]5(C)CC[C@H](O)C(C)(C)[C@@H]5CC[C@]43C)[C@@H]12 [Betulin 1, Betulin] | µg/mL | 18.5

* * *

Overview of recorded EC50 for various compounds
System: cytopathogenic bovine orphan virus (ECBO) strain LCR-4
METHOD_NOTES: Time of addition assay (post-adsorption), CPE/MTT in A549 cells
Type: cell-based, cytopathogenic bovine orphan virus (BEV-1)
EXPERIMENTAL_CONDITIONS: A549
MEASURED_ENDPOINT: EC50

COMPOUND | MEASURED_ENDPOINT | OBS_VALUE
NC(=O)c1ncn([C@@H]2O[C@H](CO)[C@@H](O)[C@H]2O)n1 [Ribavirin, reference compound] | EC50 | 10 µg/mL
C=C(C)C1CC[C@]2(COC(=O)c3cn(CC(N)C(=O)O)nn3)CC[C@]3(C)C(CCC4[C@@]5(C)CC[C@H](O)C(C)(C)C5CC[C@]43C)C12 (some centres unmarked) [Compound 5j] | EC50 | 5 µg/mL
C=C(C)[C@@H]1CC[C@]2(CO)CC[C@]3(C)[C@H](CC[C@@H]4[C@@]5(C)CC[C@H](O)C(C)(C)[C@@H]5CC[C@]43C)[C@@H]12 [Betulin 1, Betulin] | EC50 | 0.5 µg/mL
C=C(C)C1CCC2(COC(=O)c3cn(C4CC(n5cc(C)c(=O)[nH]c5=O)OC4CO)nn3)CCC3(C)C(CCC4C5(C)CCC(O)C(C)(C)C5CCC43C)C12 (centres unmarked) [Compound 5e] | EC50 | 1 µg/mL
C=C(C)C1CC[C@]2(COC(=O)c3cn(CCCO)nn3)CC[C@]3(C)C(CCC4[C@@]5(C)CC[C@H](O)C(C)(C)C5CC[C@]43C)C12 (some centres unmarked) [Compound 5h] | EC50 | 0.5 µg/mL

* * *

METHOD_NOTES: Cytotoxicity assay (MTT), determination of CC50
EXPERIMENTAL_CONDITIONS: human, A549 cells
MEASURED_ENDPOINT: CC50 at 48 h (µg/mL)

COMPOUND | MEASURED_ENDPOINT | OBS_VALUE
NC(=O)c1ncn([C@@H]2O[C@H](CO)[C@@H](O)[C@H]2O)n1 [Ribavirin, reference compound] | CC50 at 48 h | 100

* * *

Overview of recorded melting point for various compounds
MEASURED_ENDPOINT: melting point

COMPOUND | MEASURED_ENDPOINT | OBS_VALUE
C=C(C)C1CC[C@]2(COC(=O)c3cn(CCCN)nn3)CC[C@]3(C)C(CCC4[C@@]5(C)CC[C@H](O)C(C)(C)C5CC[C@]43C)C12 (stereo partly shown) | melting point | 156 to 160 °C
C=C(C)C1CC[C@]2(COC(=O)c3cn(CC(N)C(=O)O)nn3)CC[C@]3(C)C(CCC4[C@@]5(C)CC[C@H](O)C(C)(C)C5CC[C@]43C)C12 (stereo partly shown) | melting point | 265 to 269 °C
C=C(C)C1CC[C@]2(COC(=O)c3cn(CC(=O)OCC)nn3)CC[C@]3(C)C(CCC4[C@@]5(C)CC[C@H](O)C(C)(C)C5CC[C@]43C)C12 (stereo partly shown) | melting point | 176 to 181 °C
C=C(C)C1CCC2(COC(=O)c3cn(C4CC(n5cc(C)c(=O)[nH]c5=O)OC4CO)nn3)CCC3(C)C(CCC4C5(C)CCC(O)C(C)(C)C5CCC43C)C12 (stereo not shown) | melting point | 181 to 185 °C

* * *

Overview of recorded melting point for various compounds

COMPOUND | melting point
C=C(C)C1CC[C@]2(COC(=O)c3cn(CCCO)nn3)CC[C@]3(C)C(CCC4[C@@]5(C)CC[C@H](OC(=O)c6cn(CCCO)nn6)C(C)(C)C5CC[C@]43C)C12 (stereo partly drawn) | 172 to 176 °C
C=C(C)C1CC[C@]2(COC(=O)c3cn(Cc4ccc(C#N)cc4)nn3)CC[C@]3(C)C(CCC4[C@@]5(C)CC[C@H](O)C(C)(C)C5CC[C@]43C)C12 (stereo partly drawn) | 225 to 228 °C
C=C(C)C1CCC2(COC(=O)c3cn(C4OC(CO)C(O)C(O)C4O)nn3)CCC3(C)C(CCC4C5(C)CCC(O)C(C)(C)C5CCC43C)C12 (stereo not drawn) | 184 to 186 °C

* * *

Test system: T47D (human ductal carcinoma)
METHOD_NOTES: Cytotoxic activity, WST-1 assay
Format: cell-based
EXPERIMENTAL_CONDITIONS: Homo sapiens, 72 h, Neg = negative in the concentration used
pIC50: −log10 of the molar value.

COMPOUND | pIC50
C=C(C)C1CC[C@]2(COC(=O)c3cn(Cc4ccc(F)cc4)nn3)CC[C@]3(C)C(CCC4[C@@]5(C)CC[C@H](OC(=O)c6cn(Cc7ccc(F)cc7)nn6)C(C)(C)C5CC[C@]43C)C12 (some centres unmarked) [Compound 6b] | 7.30
C=C(C)C1CC[C@]2(COC(=O)c3cn(Cc4ccc(C#N)cc4)nn3)CC[C@]3(C)C(CCC4[C@@]5(C)CC[C@H](O)C(C)(C)C5CC[C@]43C)C12 (some centres unmarked) [Compound 5c] | 5.85
C=C(C)C1CC[C@]2(COC(=O)c3cn(C(C(=O)O)C(C)C)nn3)CC[C@]3(C)C(CCC4[C@@]5(C)CC[C@H](O)C(C)(C)C5CC[C@]43C)C12 (some centres unmarked) [Compound 5k] | 5.14
C=C(C)C1CC[C@]2(COC(=O)c3cn(Cc4ccc(C#N)cc4)nn3)CC[C@]3(C)C(CCC4[C@@]5(C)CC[C@H](OC(=O)c6cn(Cc7ccc(C#N)cc7)nn6)C(C)(C)C5CC[C@]43C)C12 (some centres unmarked) [Compound 6c] | 5.96
C#CC(=O)OC[C@]12CCC(C(=C)C)C1C1CCC3[C@@]4(C)CC[C@H](O)C(C)(C)C4CC[C@@]3(C)[C@]1(C)CC2 (some centres unmarked) [Compound 3, 28-O-propynoylbetulin] | 3.96
